Protocol Text: Antioxidant activity assessed as inhibition of H2O2 radical scavenging activity incubated for 60 mins by UV-spectrophotometric method
Type: functional
Experimental Endpoint: IC50 (µg/mL)

>>> numeric_value("COc1ccc(N2CCN(c3ccc4nnc(-c5cccc(C)c5)n4n3)CC2)cc1")
45.9
>>> numeric_value("O=C1O[C@H]([C@@H](O)CO)C(O)=C1O")
25.3
>>> numeric_value("Cc1cccc(-c2nnc3ccc(N4CCN(C(c5ccccc5)c5ccccc5)CC4)nn23)c1")
1.75

====

Protocol Text: Antioxidant activity assessed as inhibition of H2O2 radical scavenging activity incubated for 60 mins by UV-spectrophotometric method
Assay type: functional
Experimental Endpoint: log10 IC50 (log10 of the value in µg/mL)

>>> numeric_value("Cc1cccc(-c2nnc3ccc(N4CCN(S(C)(=O)=O)CC4)nn23)c1")
1.03
>>> numeric_value("Cc1cccc(-c2nnc3ccc(N4CCN(Cc5ccccc5)C(C(=O)O)C4)nn23)c1 (stereo not given)")
1.93
>>> numeric_value("CCOC(=O)N1CCN(c2ccc3nnc(-c4cccc(C)c4)n3n2)CC1")
0.00
>>> numeric_value("Cc1cccc(-c2nnc3ccc(N4CCN(Cc5ccccc5)CC4)nn23)c1")
1.13
>>> numeric_value("CC(=O)N1CCN(c2ccc3nnc(-c4cccc(C)c4)n3n2)CC1")
1.46
>>> numeric_value("Cc1cccc(-c2nnc3ccc(N4CCN(C(=O)OC(C)(C)C)C(Cc5ccccc5)C4)nn23)c1 (stereo not given)")
1.20
>>> numeric_value("Cc1cccc(-c2nnc3ccc(N4CCN(Cc5ccc(F)cc5)CC4)nn23)c1")
0.30
>>> numeric_value("Cc1cccc(-c2nnc3ccc(N4CCN(CCN)CC4)nn23)c1")
1.40
>>> numeric_value("Cc1cccc(-c2nnc3ccc(N4CCN(CCOCCO)CC4)nn23)c1")
1.23
>>> numeric_value("Cc1cccc(-c2nnc3ccc(N4CCN(C(=O)c5ccccc5)CC4)nn23)c1")
0.35
